I'd appreciate it if you could supply GI50 values for the items below.
Tested on: SR
Test details: NCI tumour cell line growth inhibition, 48 h
Activity calls are given as the source filed them. Cut-off read from the data, not from the text of the source: active = GI50 up to about 1.1 µM and inactive = higher. Residues, ends and D or L forms follow the SMILES beside them. *: point of attachment. Boc = CC(C)(C)OC(=O)*; OBn = c1ccc(CO*)cc1

CC1=NN(c2cccc(Cl)c2)C(=N/c2nc3ccccc3s2)/C1=C\c1ccc(Cl)cc1: 24.7 µM (inactive)

Could I get GI50 for every one of these entries?
1. N=c1c2ccccc2nc2oc3cc([N+](=O)[O-])ccc3n12
2. CC(C)CC(NC(=O)OC(C)(C)C)C(=O)NC(CC(=O)OCc1ccccc1)C(=O)OCc1ccccc1 (stereo not drawn) (Boc-Leu-Asp(OBn)-OBn; configuration not given here)

Outgoing:
> 100 µM (inactive)
25.8 µM (inactive)
